System: LC-2-ad
Assay: relative viability (nuclei count vs DMSO), 5 days (fraction); higher = more cells survive
Details: first compound 0.1265 µM
TEST_READOUT: relative viability
// response body must contain only the number

Study these solved cases before continuing.
{"columns": ["MOLECULE", "REPORTED"],
 "data": [
  ["Clc1ccc(Nc2nnc(Cc3ccncc3)c3ccccc23)cc1 [Vatalanib] + CC(C)C[C@H](NC(=O)[C@H](Cc1ccccc1)NC(=O)c1cnccn1)B(O)O [Bortezomib] (partner 0.002 µM)", 1.01],
  ["Clc1ccc(Nc2nnc(Cc3ccncc3)c3ccccc23)cc1 [Vatalanib] + C[C@]1(O)C[C@@H](c2nc(-c3ccc4ccc(-c5ccccc5)nc4c3)c3c(N)nccn32)C1 [Linsitinib] (partner 1 µM)", 0.799],
  ["Clc1ccc(Nc2nnc(Cc3ccncc3)c3ccccc23)cc1 [Vatalanib] + CS(=O)(=O)CCNCc1ccc(-c2ccc3ncnc(Nc4ccc(OCc5cccc(F)c5)c(Cl)c4)c3c2)o1 [Lapatinib] (partner 2 µM)", 0.865],
  ["Clc1ccc(Nc2nnc(Cc3ccncc3)c3ccccc23)cc1 [Vatalanib] + Nc1ncn([C@H]2C[C@H](O)[C@@H](CO)O2)c(=O)n1 [Decitabine] (partner 2 µM)", 0.753],
  ["C[C@@H]1CN(CC(=O)Nc2ccc3c(c2)Cc2cccc(-c4cc(=O)cc(N5CCOCC5)o4)c2S3)C[C@H](C)O1 + Nc1nc2[nH]cc(CCc3ccc(C(=O)N[C@@H](CCC(=O)O)C(=O)O)cc3)c2c(=O)[nH]1 [Pemetrexed] (partner 0.2 µM)", 0.248],
  ["Clc1ccc(Nc2nnc(Cc3ccncc3)c3ccccc23)cc1 [Vatalanib] + CC1(C)CCC(c2ccc(Cl)cc2)=C(CN2CCN(c3ccc(C(=O)NS(=O)(=O)c4ccc(N[C@H](CCN5CCOCC5)CSc5ccccc5)c(S(=O)(=O)C(F)(F)F)c4)cc3)CC2)C1 [Navitoclax] (partner 0.5 µM)", 0.456]
]}

Next:
In: Tell me the measured relative viability of Clc1ccc(Nc2nnc(Cc3ccncc3)c3ccccc23)cc1 [Vatalanib] + Cc1nc(Nc2ncc(C(=O)Nc3c(C)cccc3Cl)s2)cc(N2CCN(CCO)CC2)n1 [Dasatinib] (partner 0.075 µM) , please.
Out: 0.492
